Origin of measurements: paper PMC8967206

MEASUREMENT_NAME: melting point

COc1ccc(-c2nc(SC)nc(NN=Cc3ccc([N+](=O)[O-])cc3)c2C#N)cc1 | 248 to 250 °C
COc1ccc(-c2nc(SC)nc(NN=Cc3ccc(Br)cc3)c2C#N)cc1 | 246 to 248 °C

Entry under review: COc1ccc(-c2nc(SC)nc(NN)c2C#N)cc1 . Reported melting point?
270 to 272 °C
